target: Mu-type opioid receptor (Homo sapiens); test: Counterscreen for agonists of heterodimerization of the mu 1 (OPRM1) and delta 1 (OPRD1) opioid receptors: Luminescence-based cell-based high throughput dose response assay to identify agonists of OPRM1 homodimerization.; assay type: functional;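 further: U2OS cells expressing OPRM1 and beta-arrestin as split beta-galactosidase partners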
Sequence (P35372 whole entry): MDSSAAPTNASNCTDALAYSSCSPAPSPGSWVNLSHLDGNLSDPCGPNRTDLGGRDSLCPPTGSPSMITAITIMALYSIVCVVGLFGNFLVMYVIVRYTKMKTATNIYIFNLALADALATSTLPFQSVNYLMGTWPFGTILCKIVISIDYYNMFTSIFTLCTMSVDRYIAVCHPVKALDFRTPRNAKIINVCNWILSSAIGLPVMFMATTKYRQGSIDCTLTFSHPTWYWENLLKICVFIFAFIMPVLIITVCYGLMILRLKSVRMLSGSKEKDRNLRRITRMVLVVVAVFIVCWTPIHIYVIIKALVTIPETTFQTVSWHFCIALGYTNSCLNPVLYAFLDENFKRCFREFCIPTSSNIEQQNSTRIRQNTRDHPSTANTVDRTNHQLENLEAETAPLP
The source made the active and inactive calls.
Outcomes: yes (1) for active, no (0) for inactive

| COMPOUND | SUBJECT_OF_TEST | ASSIGNED_LABEL |
| --- | --- | --- |
| CN(C)CCCN(C(=O)c1ccc(S(=O)(=O)N2CCc3ccccc3C2)cc1)c1nc2c(F)cc(F)cc2s1 | Mu-type opioid receptor (Homo sapiens) | yes (1) |
| CCc1cccc(C)c1N=C(S)NCC(c1cccnc1)N(C)C (stereo not given) | Mu-type opioid receptor (Homo sapiens) | no (0) |
| CSC(=Nc1ccccc1)N=C(SCc1ccccc1)N(C)C | Mu-type opioid receptor (Homo sapiens) | no (0) |
| CCc1ccc(Nc2n[n+](-c3ccccc3)c(-c3c(Cl)cccc3Cl)s2)cc1 | Mu-type opioid receptor (Homo sapiens) | no (0) |
| CCOC(=O)C1(CC2CC2)CCN(Cc2cnc(-c3ccccc3C)nc2)CC1 | Mu-type opioid receptor (Homo sapiens) | no (0) |

====

target: Induced myeloid leukemia cell differentiation protein Mcl-1 (Homo sapiens); type: functional
Sequence (Q07820 whole entry): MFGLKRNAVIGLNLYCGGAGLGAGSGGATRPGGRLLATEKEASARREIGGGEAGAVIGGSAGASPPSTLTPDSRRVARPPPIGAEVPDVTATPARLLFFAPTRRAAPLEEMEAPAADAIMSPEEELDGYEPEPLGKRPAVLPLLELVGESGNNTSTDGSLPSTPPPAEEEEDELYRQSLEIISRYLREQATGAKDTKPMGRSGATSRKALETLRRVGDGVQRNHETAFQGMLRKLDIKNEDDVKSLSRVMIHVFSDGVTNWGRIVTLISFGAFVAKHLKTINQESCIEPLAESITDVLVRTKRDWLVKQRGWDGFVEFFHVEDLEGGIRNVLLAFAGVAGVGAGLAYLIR
Calls of active or inactive are those of the source.
Measured IC50, listed per entry.
EXPERIMENTAL_READOUT: IC50

| SMI | VAL |
| --- | --- |
| O=[N+]([O-])c1c(NCCO)cc(Sc2nc3ccccc3s2)c2nonc12 | 11.1 µM (not active) |
| O=C1C(Cl)=C(Nc2ccc3cn[nH]c3c2)C(=O)c2ccccc21 | 6.25 µM (active) |
| COc1cc(C(=O)Nc2ccc3c(c2)C(=O)c2ccccc2C3=O)cc(OC)c1OC | 2.77 µM (active) |
| COc1ccc2c(c1)CCC(/C=N/c1ccc3c(c1)OCO3)=C2O | 16.7 µM (not active) |

====

assay: viability of PTEN-deleted HCT116 cells – cell-based, HCT116 PTEN knockout, dose response (AID 1047); type: functional;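 further: HCT116 colon tumor cells with PTEN knocked out; cells exposed to compound for 60 hours before readout; potency for loss of cell viability measured by luminescence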
The source made the active and inactive calls.
Measured EC50, listed per entry.
EXPERIMENTAL_READOUT: EC50

| SMI | VAL |
| --- | --- |
| CCOC(=O)c1cc(CC)sc1NC(=O)c1ccc([N+](=O)[O-])c(N2CCOCC2)c1 | 39.9 µM (active) |
| CC1=CC(C)(C)Nc2ccc(OC(=O)c3ccco3)cc21 | 7.39 µM (active) |
| CCOC(=O)c1c(C)[nH]c2c1-c1ccccc1C(=O)C2=O | 0.487 µM (active) |
| CCN(CC)S(=O)(=O)c1ccc(NC(=O)Nc2cccc(C(F)(F)F)c2)cc1 | 4.56 µM (active) |

====

target: FAD-linked sulfhydryl oxidase ALR (Homo sapiens); test: ALR-catalysed DTT oxidation blockers – biochemical, H2O2 detection, luminescence, cherry-pick, dose response (AID 493248)
Sequence (P55789 whole entry): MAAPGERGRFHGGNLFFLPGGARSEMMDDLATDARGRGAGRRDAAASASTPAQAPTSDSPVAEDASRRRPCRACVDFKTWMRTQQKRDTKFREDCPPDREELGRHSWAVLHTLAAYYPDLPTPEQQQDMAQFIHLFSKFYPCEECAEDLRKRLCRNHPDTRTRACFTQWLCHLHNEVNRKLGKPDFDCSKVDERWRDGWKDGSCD
The source made the active and inactive calls.
Outcomes: active, inactive

| MOLECULE | ASSIGNED_LABEL |
| --- | --- |
| CN1CCN(C(=S)c2ccc(N(C)C)cc2)CC1 | active |
| CN1CCN(S(=O)(=O)c2ccc(N3CCN(c4ccc(O)cc4)CC3)c([N+](=O)[O-])c2)CC1 | active |
| O=C1NCCCc2c1oc1cc(Br)c(O)c(Br)c21 | active |
| Cc1ccc(NC(=O)CN(c2ccc3c(c2)OCO3)S(=O)(=O)c2c(C)n[nH]c2C)cc1 | inactive |
| O=C(O)Cn1cc(C(=S)N2CCCCC2)c2ccccc21 | active |
| CC(=O)Nc1cc(-c2ccccc2)ccc1O | active |
| COc1cccc(Nc2ccc(C(=O)O)cc2N)c1 | active |
| NCCCCCc1nnc(SCc2ccc(Cl)cc2Cl)o1 | active |
| COc1ccc(S(=O)(=O)Cc2ccc(C(=O)N3CCN(c4ccc(Cl)cc4)CC3)o2)cc1 | active |
| COc1cccc(Nc2c(F)c(F)c(F)c(F)c2C(=O)O)c1 | active |
| CN(C)c1ccc(/C=N/NC(=O)c2ccco2)cc1 | active |
| Cn1cc(C(=O)N2CCCC(Nc3ccc(F)cc3)C2)c2ccccc21 (stereo not drawn) | active |
| O=P(CN1CCN(c2ccccc2)CC1)(N1CCCCC1)N1CCCCC1 | active |
